method: APR_HepG2_MicrotubuleCSK_72hr: Apredica 72-hour HepG2 Assay for Microtubule CSK Stabilty (AID 2282919)
condition-label: HepG2 microtubule cytoskeleton, high-content imaging, actives raise or lower the signal
Calls of active or inactive are those of the source. Rule for the calls: active = hit-call score of the fitted dose curve at least 0.9, where 1 is the maximum; inactive = score below 0.9.
Possible outcomes: true = active, false = inactive

| compound | group-label |
| --- | --- |
| CNC(=O)[C@H]1O[C@@H](n2cnc3c(NCc4cc(Cl)ccc4OCc4cc(C)no4)ncnc32)[C@H](O)[C@@H]1N | false |
| Nc1nc(N)c2nc(CNc3ccc(C(=O)N[C@@H](CCC(=O)O)C(=O)O)cc3)cnc2n1 | false |
| Cc1ccc(C)c(C)c1 | false |
| Nc1ccc2c(c1)C(=O)c1ccccc1C2=O | false |
| CCOc1ccc2c(c1)C(C)=CC(C)(C)N2 | false |
| CCCCCCOCCO | false |
| COC(=O)c1ccc(O)cc1 | false |
| CC1(C)CC(N=C=O)CC(C)(CN=C=O)C1 (configuration not stated) | false |
| CC(CO)OC(C)CO (configuration not stated) (tested in a mixture with another compound) | false |
| CC(=O)OC/C=C(\C)CCC=C(C)C | false |
| NC(=O)Cn1c(=O)cc(CCN2CCN(c3nccc4sccc34)CC2)c2ccc(F)cc21 | false |
| CC(=O)Oc1ccccc1C(=O)O | false |
| Cc1cc(=O)[nH]c(=S)[nH]1 | false |
| c1cc(-c2ccncc2)ccn1 | false |
| CCc1c(C(=O)NN2CCCCC2)nn(-c2ccc(Cl)cc2Cl)c1-c1ccc(Br)cc1 | true |
| CCOC(=O)CCC(=O)OCC | false |
| NCCO | false |
| Cc1oc(-c2ccccc2)nc1CCOc1cccc2c1ccn2CCC(=O)O | false |
| CC1(C)NC(=O)NC1=O | false |
| Cc1cccc([N+](=O)[O-])c1C | false |
| CCCCc1ccc2c(n1)[C@@H](c1ccc(OC)cc1C[C@H](C)C(=O)O)[C@H](C(=O)O)[C@H]2c1ccc2c(c1)OCO2 | false |
| COc1cc(S(=O)(=O)O)c(C)cc1N=Nc1c(O)ccc2cc(S(=O)(=O)O)ccc12 | false |
